The following variants are listed with their measured protein stability index values.
B1: FAM46D (parent)
chain: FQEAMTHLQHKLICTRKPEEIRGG

Variants of: B1
test.summary: protein stability index of a GFP-peptide fusion (GPS, HEK-293T) (PSI 1-6); higher = more stable;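 further: lentivirally expressed fusions sorted by FACS into six bins by GFP to DsRed ratio, PSI derived from sequencing read proportions per bin multiplied by bin number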
run.parameters: c terminus: a fixed tail appended

# mutant.code, protein stability index
data = [
    ("F1V", 4.64),
    ("K11Q", 2.41),
    ("E20R", 2.19),
    ("I13H", 2.54),
    ("I21L", 2.34),
    ("T15M", 3.17),
    ("F1Y", 3.2),
    ("R16N", 3.02),
    ("G23V", 2.15),
    ("G23T", 2.14),
    ("K17S", 2.75),
]
